Form field: pIC50 (one value per entry).
Target System: bovine trypsin (Bos taurus)
Sequence (P00760 24-246): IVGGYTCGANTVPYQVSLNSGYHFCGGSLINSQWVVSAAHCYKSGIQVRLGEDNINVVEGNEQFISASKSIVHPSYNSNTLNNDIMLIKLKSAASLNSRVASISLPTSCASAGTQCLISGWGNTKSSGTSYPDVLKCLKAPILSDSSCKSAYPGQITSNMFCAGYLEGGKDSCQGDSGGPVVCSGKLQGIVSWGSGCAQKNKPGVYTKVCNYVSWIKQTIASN
Test: Trypsin inhibitory activity of peptides (BApNA hydrolysis, OD405; IC50, Ki, residual activity)
Format: biochemical
Experimental Parameters: trypsin 50 nM, BApNA 1.22 mM; read-out: IC50
Bridge positions count the residues as written; N and C are the ends. Peptide text beside a SMILES is read from it.
A value of pIC50 is the negative decimal logarithm of a concentration given in moles per litre.

INSERT INTO measurements (compound, number) VALUES
  ('CC[C@H](C)[C@@H]1NC(=O)[C@@H]2CCCN2C(=O)[C@@H]2CCCN2C(=O)[C@H]([C@@H](C)CC)NC(=O)[C@H](CO)NC(=O)[C@H](CCCCN)NC(=O)[C@H]([C@@H](C)O)NC(=O)[C@H](Cc2ccccc2)NC(=O)[C@H](CCCNC(=N)N)NC(=O)CNC(=O)[C@@H](N)CSSC[C@@H](C(=O)N[C@@H](Cc2ccccc2)C(=O)O)NC1=O [BT52] (H-CGRFTKSIPPICF-OH; disulfide 1-12; N-terminus and C-terminus assumed)', 6.89);

INPUT: What pIC50 value was documented for this compound, CC[C@H](C)[C@@H]1NC(=O)[C@@H]2CCCN2C(=O)[C@@H]2CCCN2C(=O)[C@H]([C@@H](C)CC)NC(=O)[C@H](CO)NC(=O)[C@H](CCCCN)NC(=O)[C@H]([C@@H](C)O)NC(=O)[C@H](Cc2c[nH]cn2)NC(=O)[C@H](CCCNC(=N)N)NC(=O)CNC(=O)[C@@H](N)CSSC[C@@H](C(=O)N[C@@H](Cc2ccccc2)C(=O)O)NC1=O [BT56] (H-CGRHTKSIPPICF-OH; disulfide 1-12; N-terminus and C-terminus assumed) ?
OUTPUT: 6.96

----------
Target System: UniProt P00766
Bridge positions count the residues as written; N and C are the ends. Peptide text beside a SMILES is read from it.
Each item that follows carries a reported pKi.
Lab note: report pKi as minus log10 of the concentration in molar units, number only.

// below: answered compounds
INSERT INTO assay_data (compound, number) VALUES
  ('CC[C@H](C)[C@@H]1NC(=O)[C@H](CO)NC(=O)[C@H](Cc2ccc(O)cc2)NC(=O)[C@H]([C@@H](C)O)NC(=O)[C@H](C)NC(=O)[C@H](CO)NC(=O)CNC(=O)[C@@H](N)CSSC[C@@H](C(=O)N[C@H](C(=O)NCC(=O)O)C(C)C)NC(=O)[C@H](CCC(N)=O)NC(=O)[C@H](C)NC(=O)[C@@H]2CCCN2C1=O [CH23] (H-CGSATYSIPAQCVG-OH; disulfide 1-12; N-terminus and C-terminus assumed)', 5.73),
  ('C[C@@H]1NC(=O)[C@@H](NC(=O)[C@@H](N)Cc2ccccc2)CSSC[C@@H](C(=O)N[C@@H](CCC(N)=O)C(=O)O)NC(=O)[C@H](CCCCN)NC(=O)[C@@H]2CCCN2C(=O)[C@@H]2CCCN2C(=O)[C@H](Cc2ccc(O)cc2)NC(=O)[C@H](CO)NC(=O)[C@H](Cc2ccc(O)cc2)NC1=O [CH45] (H-FCAYSYPPKCQ-OH; disulfide 2-10; N-terminus and C-terminus assumed)', 5.08);

Field: next compound
INPUT: Need pKi, item CC[C@H](C)[C@@H]1NC(=O)[C@@H]2CCCN2C(=O)[C@@H]2CCCN2C(=O)[C@H]([C@@H](C)CC)NC(=O)[C@H](CO)NC(=O)[C@H](Cc2ccc(O)cc2)NC(=O)[C@H](CC(C)C)NC(=O)[C@@H](NC(=O)[C@H](CCCCN)NC(=O)CN)CSSC[C@@H](C(=O)N[C@@H](Cc2ccccc2)C(=O)N2CCC[C@H]2C(=O)N[C@@H](CC(N)=O)C(=O)O)NC1=O [CH20] (H-GKCLYSIPPICFPN-OH; disulfide 3-11; N-terminus and C-terminus assumed)
OUTPUT: 5.15

----------
Target System: bovine trypsin (Bos taurus)
Test: Trypsin inhibitory activity of peptides (BApNA hydrolysis, OD405; IC50, Ki, residual activity)
Format: biochemical
Experimental Parameters: peptide 4.88 μM
Bridge positions count the residues as written; N and C are the ends. Peptide text beside a SMILES is read from it.
Reported Residual trypsin activity values are given for each entry in this list.
Hi! Could you send only the number? It should be in %, unit omitted.

INSERT INTO results (compound, number) VALUES
  ('CC[C@H](C)[C@@H]1NC(=O)[C@@H]2CCCN2C(=O)[C@@H]2CCCN2C(=O)[C@H]([C@@H](C)CC)NC(=O)[C@H](CO)NC(=O)[C@H](CCCCN)NC(=O)[C@H]([C@@H](C)O)NC(=O)[C@H](C)NC(=O)[C@H](CO)NC(=O)CNC(=O)[C@@H](N)CSSC[C@@H](C(=O)N[C@@H](Cc2ccccc2)C(=O)N2CCC[C@H]2C(=O)N[C@@H](CC(=O)O)C(=O)O)NC1=O [BT6] (H-CGSATKSIPPICFPD-OH; disulfide 1-12; N-terminus and C-terminus assumed)', 1.2),
  ('CC[C@H](C)[C@@H]1NC(=O)[C@@H]2CCCN2C(=O)[C@@H]2CCCN2C(=O)[C@H]([C@@H](C)CC)NC(=O)[C@H](CO)NC(=O)[C@H](CCCCN)NC(=O)[C@H]([C@@H](C)O)NC(=O)CNC(=O)[C@H](CCCCN)NC(=O)[C@H](C)NC(=O)CNC(=O)[C@@H](N)CSSC[C@@H](C(=O)N[C@@H](Cc2ccccc2)C(=O)N2CCC[C@H]2C(=O)N[C@@H](CC(=O)O)C(=O)O)NC1=O [BT2] (H-CGAKGTKSIPPICFPD-OH; disulfide 1-13; N-terminus and C-terminus assumed)', 12.9),
  ('CC[C@H](C)[C@@H]1NC(=O)[C@H](C)NC(=O)[C@@H]2CCCN2C(=O)[C@H](CC(C)C)NC(=O)[C@H](CO)NC(=O)[C@H](CCCCN)NC(=O)[C@H]([C@@H](C)O)NC(=O)[C@H](C)NC(=O)[C@H](CCCNC(=N)N)NC(=O)CNC(=O)[C@@H](N)CSSC[C@@H](C(=O)N[C@@H](Cc2ccccc2)C(=O)O)NC1=O [BT16] (H-CGRATKSLPAICF-OH; disulfide 1-12; C-terminus assumed)', 0.0),
  ('CC[C@H](C)[C@@H]1NC(=O)[C@@H]2CCCN2C(=O)[C@@H]2CCCN2C(=O)[C@H]([C@@H](C)CC)NC(=O)[C@H](CO)NC(=O)[C@H](CCCCN)NC(=O)[C@H]([C@@H](C)O)NC(=O)[C@H](C)NC(=O)[C@H](CCCNC(=N)N)NC(=O)CNC(=O)[C@@H](N)CSSC[C@@H](C(=O)O)NC(=O)[C@H](Cc2ccccc2)NC(=O)[C@H](C)NC1=O [BT11] (H-CGRATKSIPPIAFC-OH; disulfide 1-14; N-terminus and C-terminus assumed)', 1.4);

Next compound, Residual trypsin activity to be filled in.
INPUT: Requested read-out: Residual trypsin activity. Entry: CC[C@H](C)[C@@H]1NC(=O)[C@@H]2CCCN2C(=O)[C@@H]2CCCN2C(=O)[C@H]([C@@H](C)CC)NC(=O)[C@H](CO)NC(=O)[C@H](CCCCN)NC(=O)[C@H]([C@@H](C)O)NC(=O)[C@H](C)NC(=O)[C@H](CCCCN)NC(=O)[C@H](C)NC(=O)CNC(=O)[C@@H](N)CSSC[C@@H](C(=O)N[C@@H](Cc2ccccc2)C(=O)N2CCC[C@H]2C(=O)N[C@@H](CC(=O)O)C(=O)O)NC1=O [BT3] (H-CGAKATKSIPPICFPD-OH; disulfide 1-13; N-terminus and C-terminus assumed)
OUTPUT: 1.8

----------
Target System: bovine trypsin (Bos taurus)
Test: Trypsin inhibitory activity of peptides (BApNA hydrolysis, OD405; IC50, Ki, residual activity)
Assay type: biochemical
Experimental Parameters: peptide 0.00098 μM
Bridge positions count the residues as written; N and C are the ends. Peptide text beside a SMILES is read from it.
The entries below are paired with their reported Residual trypsin activity.
// note: answer is a bare numeric in %

INSERT INTO results (compound, target_system, number) VALUES
  ('CC[C@H](C)[C@@H]1NC(=O)[C@@H]2CCCN2C(=O)[C@@H]2CCCN2C(=O)[C@H]([C@@H](C)CC)NC(=O)[C@H](CO)NC(=O)[C@H](CCCCN)NC(=O)[C@H]([C@@H](C)O)NC(=O)[C@H](C)NC(=O)[C@H]([C@@H](C)O)NC(=O)CNC(=O)[C@@H](N)CSSC[C@@H](C(=O)N[C@@H](Cc2ccccc2)C(=O)O)NC1=O [BT25] (H-CGTATKSIPPICF-OH; disulfide 1-12; C-terminus assumed)', 'bovine trypsin (Bos taurus)', 100.6),
  ('CC[C@H](C)[C@@H]1NC(=O)[C@@H]2CCCN2C(=O)[C@@H]2CCCN2C(=O)[C@H]([C@@H](C)CC)NC(=O)[C@H](CO)NC(=O)[C@H](CCCCN)NC(=O)[C@H]([C@@H](C)O)NC(=O)[C@H](C)NC(=O)[C@H](CCCNC(=N)N)NC(=O)CNC(=O)[C@@H](N)CSSC[C@@H](C(=O)N[C@@H](Cc2ccccc2)C(=O)N2CCC[C@H]2C(=O)N[C@@H](CC(=O)O)C(=O)O)NC1=O [BT5] (H-CGRATKSIPPICFPD-OH; disulfide 1-12; N-terminus and C-terminus assumed)', 'bovine trypsin (Bos taurus)', 104.0),
  ('CC[C@H](C)[C@@H]1NC(=O)[C@@H]2CCCN2C(=O)[C@@H]2CCCN2C(=O)[C@H]([C@@H](C)CC)NC(=O)[C@H](CO)NC(=O)[C@H](CCCCN)NC(=O)[C@H]([C@@H](C)O)NC(=O)[C@H](C)NC(=O)[C@H](CCCNC(=N)N)NC(=O)[C@@H]2CCCN2C(=O)[C@@H](N)CSSC[C@@H](C(=O)N[C@@H](Cc2ccccc2)C(=O)O)NC1=O [BT66] (H-CPRATKSIPPICF-OH; disulfide 1-12; C-terminus assumed)', 'bovine trypsin (Bos taurus)', 104.7);

For the next question, use this compound.
INPUT: Look up Residual trypsin activity for this compound: CC[C@H](C)[C@@H]1NC(=O)[C@H](C)NC(=O)[C@@H]2CCCN2C(=O)[C@H]([C@@H](C)CC)NC(=O)[C@H](CO)NC(=O)[C@H](CCCCN)NC(=O)[C@H]([C@@H](C)O)NC(=O)[C@H](C)NC(=O)[C@H](CCCNC(=N)N)NC(=O)CNC(=O)[C@@H](N)CSSC[C@@H](C(=O)N[C@@H](Cc2ccccc2)C(=O)O)NC1=O [BT10] (H-CGRATKSIPAICF-OH; disulfide 1-12)
OUTPUT: 99.7
